# test-method-notes: IRE1-XBP1 UPR arm activators, confirmation, cell-based, CHO-XBP1 luciferase reporter, luminescence, single concentration (AID 485299)
# condition: at 20 µM
The whole screen tested about 1,000 compounds, of which about 630 (63%) were called active.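 The calls were made as follows: active = reporter signal at least 30% of the positive control's activation in two or more of four replicate wells; inactive = the rest.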 The set was probably picked from earlier hits. The list is a sample of the results.
Output constraint: value belongs to YES for active, NO for inactive

O=C(CCCCCn1c(=S)[nH]c2cc3c(cc2c1=O)OCO3)N1CCN(c2ccc(F)cc2)CC1 | NO
CCOC(=O)C1=C(O)/C(=C/c2ccc(OCC(=O)Nc3ccc(C)cc3)cc2)N=C1C | NO
C=CCN(CC=C)S(=O)(=O)c1ccc(C(=O)Nc2nc3c(s2)CCc2ccccc2-3)cc1 | YES
COc1ccc(Nc2cc(C)nc(-n3nc(C)cc3C)n2)cc1 | NO

From here, focus on the item given below.
Ask | Short answer needed: outcome of this test for CC(C)=CCCC1(C)C=Cc2c(ccc3c2[nH]c2cc(O)c(C)cc23)O1 (stereo not given) ?
Reply | YES

Values were extracted from PubChem BioAssay AID485299.
